Target: OATP1B1 (Homo sapiens)
Sequence (Q9Y6L6 whole entry): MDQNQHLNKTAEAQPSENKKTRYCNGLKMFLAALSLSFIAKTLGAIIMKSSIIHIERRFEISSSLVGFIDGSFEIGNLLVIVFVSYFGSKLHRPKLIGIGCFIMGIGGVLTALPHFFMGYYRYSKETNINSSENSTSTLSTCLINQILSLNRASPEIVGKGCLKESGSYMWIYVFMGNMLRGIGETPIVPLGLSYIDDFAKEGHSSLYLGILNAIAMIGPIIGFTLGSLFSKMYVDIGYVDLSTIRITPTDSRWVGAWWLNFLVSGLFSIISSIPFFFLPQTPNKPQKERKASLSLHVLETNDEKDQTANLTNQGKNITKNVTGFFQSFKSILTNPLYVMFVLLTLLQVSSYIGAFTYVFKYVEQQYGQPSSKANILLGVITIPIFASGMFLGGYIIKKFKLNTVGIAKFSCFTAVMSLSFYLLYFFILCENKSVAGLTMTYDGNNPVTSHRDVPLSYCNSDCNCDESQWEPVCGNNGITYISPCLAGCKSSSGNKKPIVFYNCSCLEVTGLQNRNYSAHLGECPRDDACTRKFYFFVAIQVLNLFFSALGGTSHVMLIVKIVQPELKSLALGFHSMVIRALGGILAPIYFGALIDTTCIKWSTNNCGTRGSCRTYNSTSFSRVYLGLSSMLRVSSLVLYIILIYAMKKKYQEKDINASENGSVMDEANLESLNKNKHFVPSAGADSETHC
Assay: Uptake into stable transfected OATP1B1 HEK 293 cells
Format: cell-based
Conditions: 40 min incubation, relative to RC1 (Gd-EOB-DTPA)
Quick reference for Uptake into OATP1B1-HEK 293 cells among some compounds

[
  {
    "compound": "CCOCCOCCOc1ccc(CCCC(C(=O)O)N2CCN(CC(=O)[O-])CCN(CC(=O)[O-])CCN(CC(=O)[O-])CC2)cc1.[Gd+3] (stereo not drawn) [Example 25]",
    "assay_target": "OATP1B1 (Homo sapiens)",
    "Uptake into OATP1B1-HEK 293 cells": "30 % of RC1"
  }
]

Inquiry: Can you look up the measured Uptake into OATP1B1-HEK 293 cells of CCOCCOCCOCCOc1ccc(CC(C(=O)O)N2CCN(CC(=O)[O-])CCN(C(COC)C(=O)[O-])CCN(CC(=O)[O-])CC2)cc1.[Gd+3] (stereo not drawn) [Example 13] for me?
Reply text: 109 % of RC1

Inquiry: Lookup O=C([O-])CN1CCN(CC(=O)[O-])CCN([C@H](Cc2ccc(OCC(F)(F)F)cc2)C(=O)O)CCN(CC(=O)[O-])CC1.[Gd+3] [Example 47]
Reply text: 13 % of RC1

Inquiry: Cool, now CCOCCOCCOCCOc1ccc(C[C@H](C(=O)O)N2CCN(CC(=O)[O-])CCN(CC(=O)[O-])CCN(CC(=O)[O-])CC2)cc1.[Gd+3] [Example 12]
Reply text: 86 % of RC1

Inquiry: Subsequent entry: CCOCCOCCOCCOc1ccc(CC(C(=O)O)N2CCN(CC(=O)[O-])CCN(C(CO)C(=O)[O-])CCN(CC(=O)[O-])CC2)cc1.[Gd+3] (stereo not drawn) [Example 42]
Reply text: 89 % of RC1

Inquiry: Let us now turn to CCOCCOCCOc1ccc(CC(C(=O)O)N2CCN(C(CO)C(=O)[O-])CCN(C(CO)C(=O)[O-])CCN(C(CO)C(=O)[O-])CC2)cc1.[Gd+3] (stereo not drawn) [Example 22]
Reply text: 77 % of RC1

Inquiry: One more compound: O=C([O-])CN(CCN(CC(=O)[O-])CC(=O)[O-])CCN(CC(=O)[O-])C(COCc1ccccc1)C(=O)[O-].[Gd+3].[H+].[H+] (stereo not drawn) [RC2, gadobenic acid, reference compound]
Reply text: 31 % of RC1
